Provenance of the data: patent US9738655B2

target: purified human plasma kallikrein (Homo sapiens (Human), UniProt P03952); assay: Plasma kallikrein enzyme inhibition assay (chromogenic substrate S-2302); type: biochemical; settings: measured at 37° C. (*)
Sequence (P03952 391-638): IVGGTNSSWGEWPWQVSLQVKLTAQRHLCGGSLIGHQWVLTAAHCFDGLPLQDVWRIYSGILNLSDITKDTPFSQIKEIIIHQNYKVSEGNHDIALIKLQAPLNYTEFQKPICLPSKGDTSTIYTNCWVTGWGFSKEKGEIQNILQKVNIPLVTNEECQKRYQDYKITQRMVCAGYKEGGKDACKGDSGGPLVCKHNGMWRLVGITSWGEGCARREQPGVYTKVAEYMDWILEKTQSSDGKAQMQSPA
Sequence (P03952 20-390 partner): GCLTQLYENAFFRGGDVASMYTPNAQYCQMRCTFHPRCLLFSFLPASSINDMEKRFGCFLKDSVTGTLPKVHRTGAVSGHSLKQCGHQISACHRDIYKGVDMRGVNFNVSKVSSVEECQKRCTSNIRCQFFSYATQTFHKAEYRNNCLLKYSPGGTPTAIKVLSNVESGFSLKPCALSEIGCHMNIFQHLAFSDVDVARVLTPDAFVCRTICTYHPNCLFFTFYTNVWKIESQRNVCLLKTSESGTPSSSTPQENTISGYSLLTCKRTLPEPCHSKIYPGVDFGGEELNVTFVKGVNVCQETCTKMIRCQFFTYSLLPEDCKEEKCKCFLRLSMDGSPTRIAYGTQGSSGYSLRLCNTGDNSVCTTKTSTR
Structures can show the parent of a compound that is named as a salt.
Group membership follows Ki per the scheme group A: < 60 nM; group B: ≥ 60 nM and < 500 nM; group C: ≥ 500 nM

{"columns": ["molecule", "target.system", "cat"],
 "data": [
  ["O=C(O)c1ccc2cc(NC(=O)C3c4cccc(-c5cncnc5)c4CCN3C(=O)c3cn(-c4cccc(Cl)c4F)nn3)ccc2n1 (stereo not drawn) [Example 129, TFA salt]", "purified human plasma kallikrein (Homo sapiens (Human), UniProt P03952)", "group A"],
  ["O=C(O)c1ccc(NC(=O)[C@@H]2c3cccc(-n4cnnc4)c3CCN2C(=O)[C@H]2CC(c3cccc(Cl)c3F)=NO2)cc1 [Example 247, TFA salt]", "purified human plasma kallikrein (Homo sapiens (Human), UniProt P03952)", "group A"],
  ["O=C(NC12CCC(C(=O)O)(CC1)CC2)[C@@H]1c2cccc(-c3cncnc3)c2CCN1C(=O)c1cn(-c2cccc(Cl)c2F)nn1 (single isomer, unassigned; enantiomer a)", "purified human plasma kallikrein (Homo sapiens (Human), UniProt P03952)", "group C"],
  ["O=C(Nc1ccccc1)C1c2cccc(Br)c2CCN1C(=O)c1cn(-c2cccc(Cl)c2F)nn1 (stereo not drawn)", "purified human plasma kallikrein (Homo sapiens (Human), UniProt P03952)", "group C"],
  ["O=C(Nc1ccc2ncccc2c1)[C@H]1c2cccc(-c3cncnc3)c2CCN1C(=O)c1cn(-c2cccc(Cl)c2F)nn1 (stereo in doubt) [Example 125, TFA salt]", "purified human plasma kallikrein (Homo sapiens (Human), UniProt P03952)", "group A"],
  ["COC1CCN(c2cccc3c2CCN(C(=O)c2cn(-c4cccc(Cl)c4F)nn2)[C@H]3C(=O)Nc2ccc(CO)cc2)CC1", "purified human plasma kallikrein (Homo sapiens (Human), UniProt P03952)", "group C"],
  ["COC1CCN(c2cccc3c2CCN(C(=O)[C@H]2CC(c4cccc(Cl)c4F)=NO2)[C@@H]3C(=O)Nc2cccc(F)c2)CC1 (single isomer, unassigned) [Example 237, TFA salt]", "purified human plasma kallikrein (Homo sapiens (Human), UniProt P03952)", "group B"],
  ["COC1CCN(c2cccc3c2CCN(C(=O)[C@H]2CC(c4cccc(Cl)c4F)=NO2)[C@@H]3C(=O)Nc2ccccc2F)CC1 (single isomer, unassigned) [Example 235, TFA salt]", "purified human plasma kallikrein (Homo sapiens (Human), UniProt P03952)", "group B"],
  ["COC(=O)c1ccc(NC(=O)[C@H]2c3cccc(N4CCN(C5COC5)CC4)c3CCN2C(=O)[C@H]2CC(c3cccc(Cl)c3F)=NO2)cc1 [Example 233, TFA salt]", "purified human plasma kallikrein (Homo sapiens (Human), UniProt P03952)", "group C"],
  ["O=C(O)c1ccc(NC(=O)C2c3cccc(N4CCN(CC(F)(F)F)CC4)c3CCN2C(=O)c2cn(-c3cccc(Cl)c3F)nn2)cc1 (stereo not drawn) [Example 229, TFA salt]", "purified human plasma kallikrein (Homo sapiens (Human), UniProt P03952)", "group B"],
  ["COC1CCN(c2cccc3c2CCN(C(=O)c2cnn(-c4ccncc4)c2N)C3C(=O)Nc2ccc(C(=O)O)cc2)CC1 (racemic) [Example 313, TFA salt]", "purified human plasma kallikrein (Homo sapiens (Human), UniProt P03952)", "group C"]
]}

###

Each entry below lists one item and its recorded Ki value.
biological target: purified human plasma kallikrein (Homo sapiens (Human), UniProt P03952); assay: Plasma kallikrein enzyme inhibition assay (chromogenic substrate S-2302); format: biochemical; details: measured at 37° C. (*)
Where a name gives a salt, the structure may show the parent alone.

{"columns": ["compound", "target.system", "value.comparator", "Ki (nM)"],
 "data": [
  ["COC1CCN(c2cccc3c2CCN(C(=O)N2CCCC(c4cccc(Cl)c4F)C2)C3C(=O)Nc2ccc(C(=O)O)cc2)CC1 (stereo not drawn) [Example 326, TFA salt]", "purified human plasma kallikrein (Homo sapiens (Human), UniProt P03952)", ">", 2000],
  ["O=C(O)c1ccc(NC(=O)[C@H]2c3cccc(-c4cncc(F)c4)c3CCN2C(=O)[C@H]2CC(c3cccc(Cl)c3F)=NO2)cc1 [Example 22, TFA salt]", "purified human plasma kallikrein (Homo sapiens (Human), UniProt P03952)", "=", 869],
  ["O=C(O)c1ccc(NC(=O)[C@H]2c3cccc(N4CCN(CC(F)(F)F)CC4)c3CCN2C(=O)[C@H]2CC(c3cccc(Cl)c3F)=NO2)cc1 [Example 231, TFA salt]", "purified human plasma kallikrein (Homo sapiens (Human), UniProt P03952)", "=", 1290],
  ["CC1(COc2cccc3c2CCN(C(=O)c2cn(-c4cccc(Cl)c4F)nn2)C3C(=O)Nc2ccc(C(=O)O)cc2)COC1 (stereo not drawn)", "purified human plasma kallikrein (Homo sapiens (Human), UniProt P03952)", "=", 36.2],
  ["O=C(Nc1ccc(-c2ncc[nH]2)cc1)[C@H]1c2cccc(-c3cncnc3)c2CCN1C(=O)c1cn(-c2cccc(Cl)c2F)nn1 [Example 139, TFA salt]", "purified human plasma kallikrein (Homo sapiens (Human), UniProt P03952)", ">", 13000],
  ["Cc1ncn(-c2cccc3c2CCN(C(=O)[C@H]2CC(c4cccc(Cl)c4F)=NO2)[C@@H]3C(=O)Nc2ccc(C(=O)O)cc2)n1 [Example 250, TFA salt]", "purified human plasma kallikrein (Homo sapiens (Human), UniProt P03952)", "=", 6.8]
]}

###

target: purified human Factor XIa (Homo sapiens (Human), UniProt P03951); experiment: Factor XIa enzyme inhibition assay (chromogenic substrate S-2366); settings: read-out: Factor XIa Ki; measured at 25° C.
Sequence (P03951 388-625): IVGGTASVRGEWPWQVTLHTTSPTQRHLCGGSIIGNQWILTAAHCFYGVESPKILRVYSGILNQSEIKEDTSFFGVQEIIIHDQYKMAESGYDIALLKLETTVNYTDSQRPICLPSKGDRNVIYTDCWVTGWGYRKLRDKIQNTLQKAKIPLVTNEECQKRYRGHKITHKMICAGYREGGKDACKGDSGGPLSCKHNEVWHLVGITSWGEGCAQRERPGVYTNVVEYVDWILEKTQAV
Sequence (P03951 19-387 partner): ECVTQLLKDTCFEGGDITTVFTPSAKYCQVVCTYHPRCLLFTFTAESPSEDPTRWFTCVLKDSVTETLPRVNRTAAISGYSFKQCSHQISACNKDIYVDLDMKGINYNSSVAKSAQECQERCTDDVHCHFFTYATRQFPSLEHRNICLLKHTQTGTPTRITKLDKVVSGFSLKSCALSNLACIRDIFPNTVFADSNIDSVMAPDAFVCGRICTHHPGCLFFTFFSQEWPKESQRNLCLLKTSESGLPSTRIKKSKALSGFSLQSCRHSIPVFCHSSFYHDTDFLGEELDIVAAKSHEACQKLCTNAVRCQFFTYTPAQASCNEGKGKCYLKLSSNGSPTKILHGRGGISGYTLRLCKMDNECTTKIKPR
pKi: −log10 of the molar value. Structures can show the parent of a compound that is named as a salt.
metric: pKi

{"columns": ["molecule", "metric", "result"],
 "data": [
  ["Cc1nnc(-c2cccc(-c3cccc4c3CCN(C(=O)c3cn(-c5cccc(Cl)c5F)nn3)C4C(=O)Nc3ccc(C(=O)O)cc3)c2)o1 (stereo not drawn)", "pKi", "> 8.30"],
  ["O=C(O)c1ccc(NC(=O)C2c3cccc(-c4ccc5c(c4)CCNC5)c3CCN2C(=O)c2cn(-c3cccc(Cl)c3F)nn2)cc1 (stereo not drawn) [Example 40, TFA salt]", "pKi", "> 8.30"],
  ["COC1CCN(c2cccc3c2CCN(C(=O)C2CCN(c4ccc(OC(C)C)cc4)C2=O)C3C(=O)Nc2ccc(C(=O)O)cc2)CC1 (stereo not drawn) [Example 149, TFA salt]", "pKi", 5.15],
  ["O=C(O)c1ccc(NC(=O)C2c3cccc(C4=CCOCC4)c3CCN2C(=O)c2cn(-c3cccc(Cl)c3F)nn2)cc1 (stereo not drawn)", "pKi", "> 8.30"],
  ["CN(C)CCNC(=O)c1ccc(-c2cccc3c2CCN(C(=O)c2cnn(-c4cccc(Cl)c4F)c2)C3C(=O)Nc2ccc(C(=O)O)cc2)cc1 (stereo not drawn) [Example 8, TFA salt]", "pKi", "> 8.30"],
  ["O=C(O)c1ccc(NC(=O)C2c3cccc(-c4cncnc4)c3CCN2C(=O)c2cn(-c3cccc(Cl)c3F)nn2)cc1 (stereo not drawn)", "pKi", "> 8.30"],
  ["CN(C)C(=O)C1CCN(c2cccc3c2CCN(C(=O)c2cn(-c4cccc(Cl)c4F)nn2)[C@@H]3C(=O)Nc2ccc(C(=O)O)cc2)CC1 (single isomer, unassigned) [Example 58, TFA salt]", "pKi", "> 8.30"],
  ["CN1CCN(c2cccc3c2CCN(C(=O)c2cncc(-c4ccccc4)c2)C3C(=O)Nc2ccc(C(=O)O)cc2)CC1 (stereo not drawn)", "pKi", 6.63],
  ["CN(C)C1CCN(c2cccc3c2CCN(C(=O)c2cn(-c4cccc(Cl)c4F)nn2)[C@@H]3C(=O)Nc2ccc(C(N)=O)cc2)CC1 [Example 101, bis-TFA salt]", "pKi", "> 8.30"],
  ["COC(=O)c1ccc(NC(=O)[C@@H]2c3cccc(-c4cncnc4)c3CCN2C(=O)[C@H]2CC(c3cccc(Cl)c3F)=NO2)cc1", "pKi", "> 8.30"],
  ["CN1CCN(c2cccc3c2CCN(C(=O)c2cn(-c4cccc(Cl)c4F)nn2)[C@H]3C(=O)Nc2ccc(C(=O)O)cc2)CC1=O [Example 288, TFA salt]", "pKi", 6.81],
  ["O=C1CCC2(CCN(c3cccc4c3CCN(C(=O)c3cnn(-c5cccc(Cl)c5F)c3)C4C(=O)Nc3ccc(C(=O)O)cc3)CC2)O1 (stereo not drawn) [Example 75, TFA salt]", "pKi", "> 8.30"],
  ["O=C(O)c1ccc(NC(=O)C2c3cccc(OC4COC4)c3CCN2C(=O)c2cn(-c3cccc(Cl)c3F)nn2)cc1 (stereo not drawn)", "pKi", 8.11],
  ["O=C(O)c1ccc(NC(=O)C2c3ccccc3CCN2C(=O)c2cn(-c3cccc(Cl)c3F)nn2)cc1 (stereo not drawn)", "pKi", 7.87],
  ["Nc1cc(-c2cccc3c2CCN(C(=O)c2cn(-c4cccc(Cl)c4F)nn2)C3C(=O)Nc2ccc(C(=O)O)cc2)ccn1 (stereo not drawn) [Example 38, bis-TFA salt]", "pKi", "> 8.30"],
  ["O=C(O)c1ccc(NC(=O)C2c3cccc(N4CCC(O)CC4)c3CCN2C(=O)c2cn(-c3cccc(Cl)c3F)nn2)cc1 (stereo not drawn) [Example 85, TFA salt]", "pKi", "> 8.30"],
  ["O=C(O)c1ccc(NC(=O)[C@@H]2c3cccc(N4CCOCC4)c3CCN2C(=O)c2cn(-c3cccc(Cl)c3F)cn2)cc1 [Example 91, TFA salt]", "pKi", "> 8.30"],
  ["O=C(O)c1ccc(NC(=O)C2c3cccc(N4CC[C@H](O)C4=O)c3CCN2C(=O)c2cn(-c3cccc(Cl)c3F)nn2)cc1 (stereo partly drawn) [Example 196, TFA salt]", "pKi", 8.15],
  ["O=C(O)c1ccc(NC(=O)[C@@H]2c3cccc(N4CCC(O)CC4)c3CCN2C(=O)c2cn(-c3cccc(Cl)c3F)nn2)cc1 [Example 86, TFA salt]", "pKi", "> 8.30"],
  ["COC(C)(C)C1CCN(c2cccc3c2CCN(C(=O)c2cnn(-c4cccc(Cl)c4F)c2)C3C(=O)Nc2ccc(C(=O)O)cc2)CC1 (stereo not drawn) [Example 224, TFA salt]", "pKi", "> 8.30"],
  ["O=C(O)c1ccc(NC(=O)C2c3cccc(N4CCN(CC(F)(F)F)CC4)c3CCN2C(=O)c2cn(-c3cccc(Cl)c3F)nn2)cc1 (stereo not drawn) [Example 229, TFA salt]", "pKi", "> 8.30"],
  ["CN1CCN(c2cccc3c2CCN(C(=O)c2cncc(-c4cccc(Cl)c4)c2)C3C(=O)Nc2ccc(C(=O)O)cc2)CC1 (stereo not drawn) [Example 320, TFA salt]", "pKi", 6.80],
  ["O=C(O)c1ccc(NC(=O)C2c3cccc(-c4ccccc4CN4CCOCC4)c3CCN2C(=O)c2cn(-c3cccc(Cl)c3F)nn2)cc1 (stereo not drawn) [Example 179, TFA salt]", "pKi", 8.23],
  ["O=C(O)c1ccc2cc(NC(=O)C3c4cccc(-c5cncnc5)c4CCN3C(=O)c3cn(-c4cccc(Cl)c4F)nn3)ccc2n1 (stereo not drawn) [Example 129, TFA salt]", "pKi", "> 8.30"]
]}
